Numbers sourced from paper PMC7597557.

Measured pIC50 values are reported for all entries that follow.
Biological target: H-2 K^b (Mus musculus, UniProt P01901)
Sequence (P01901 22-369): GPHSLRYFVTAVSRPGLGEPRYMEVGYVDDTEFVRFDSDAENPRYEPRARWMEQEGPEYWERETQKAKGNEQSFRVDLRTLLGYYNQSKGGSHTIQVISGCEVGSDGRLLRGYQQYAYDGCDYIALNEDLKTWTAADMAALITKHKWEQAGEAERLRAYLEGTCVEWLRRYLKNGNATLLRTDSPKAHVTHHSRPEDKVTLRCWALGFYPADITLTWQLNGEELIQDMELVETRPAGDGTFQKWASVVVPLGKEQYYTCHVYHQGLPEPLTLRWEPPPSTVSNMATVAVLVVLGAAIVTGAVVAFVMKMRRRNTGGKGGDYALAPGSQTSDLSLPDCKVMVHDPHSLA
Sequence (P01887 21-119 partner): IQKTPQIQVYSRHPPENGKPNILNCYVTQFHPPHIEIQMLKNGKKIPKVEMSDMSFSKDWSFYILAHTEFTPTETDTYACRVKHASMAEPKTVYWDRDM
pIC50: −log10 of the molar value. Peptide text beside a SMILES is read from it.

[
  {
    "compound": "CC[C@H](C)[C@H](N)C(=O)N[C@@H](CCSC)C(=O)N[C@@H](Cc1ccc(O)cc1)C(=O)N[C@@H](CC(N)=O)C(=O)N[C@@H](Cc1ccc(O)cc1)C(=O)N1CCC[C@H]1C(=O)N[C@@H](C)C(=O)N[C@H](C(=O)O)[C@@H](C)CC [M11I] (H-IMYNYPAI-OH)",
    "pIC50": 4.54
  },
  {
    "compound": "CC[C@H](C)[C@H](NC(=O)[C@@H](NC(=O)[C@@H](N)CO)[C@@H](C)CC)C(=O)N[C@@H](CC(N)=O)C(=O)N[C@@H](Cc1ccccc1)C(=O)N[C@@H](CCC(=O)O)C(=O)N[C@@H](CCCCN)C(=O)N[C@@H](CC(C)C)C(=O)O [reference compound]",
    "pIC50": 5.14
  },
  {
    "compound": "CC[C@H](C)[C@H](N)C(=O)N[C@@H](CCSC)C(=O)N[C@@H](Cc1ccc(O)cc1)C(=O)N[C@@H](CC(N)=O)C(=O)N[C@@H](Cc1ccc(O)cc1)C(=O)N1CCC[C@H]1C(=O)N[C@H](C(=O)N[C@@H](CCSC)C(=O)O)C(C)C [A10V] (H-IMYNYPVM-OH)",
    "pIC50": 4.67
  },
  {
    "compound": "CC[C@H](C)[C@H](N)C(=O)N[C@@H](CCSC)C(=O)N[C@@H](Cc1ccc(O)cc1)C(=O)N[C@@H](CC(N)=O)C(=O)N[C@@H](Cc1ccc(O)cc1)C(=O)N1CCC[C@H]1C(=O)N[C@H](C(=O)N[C@@H](CCSC)C(=O)O)[C@@H](C)O [A10T] (H-IMYNYPTM-OH)",
    "pIC50": 4.55
  },
  {
    "compound": "CC[C@H](C)[C@H](N)C(=O)N[C@@H](CCSC)C(=O)N[C@@H](Cc1ccc(O)cc1)C(=O)N[C@@H](CC(N)=O)C(=O)N[C@@H](Cc1ccc(O)cc1)C(=O)N[C@@H](CO)C(=O)N[C@@H](C)C(=O)N[C@@H](CCSC)C(=O)O [P9S] (H-IMYNYSAM-OH)",
    "pIC50": 4.23
  }
]
